- measurement.protocol: Metabolic stability in aqueous ammonium carbonate solution assessed as trypsin/chymotrypsin (unknown origin)-mediated drug degradation by measuring half life at 0.05 ug/ml incubated in shaking conditions in presence of trypsin/chymotrpsin and measured for 48 hrs by RP-HPLC analysis
- Assay type: ADME
- test.context: human
Non-standard residues stand in square brackets, D forms with d. Residues, ends and D or L forms follow the SMILES beside them. NMeQ = CN[C@@H](CCC(N)=O)C(=O)O
Let's look at some compounds and their measured half-life at 0.05 ug/ml.
Unit h implied. Number only.

CC[C@H](C)[C@H](NC(=O)[C@H](Cc1ccccc1)NC(=O)[C@H](CC(=O)O)NC(=O)[C@H](CCCNC(=N)N)NC(=O)[C@H](Cc1ccccc1)NC(=O)[C@H](Cc1ccccc1)NC(=O)[C@H](CCCCN)NC(=O)[C@H](CO)NC(=O)[C@H](CC(C)C)NC(=O)[C@H](CCCNC(=N)N)NC(=O)[C@H](CCSC)NC(=O)[C@H](C)N)C(=O)N[C@@H](CC(C)C)C(=O)N(C)[C@@H](CCC(N)=O)C(=O)N[C@@H](CCCNC(=N)N)C(=O)N[C@@H](CCCCN)C(=O)N[C@@H](CCCCN)C(=O)O
6
CC[C@H](C)[C@H](NC(=O)[C@H](Cc1ccccc1)NC(=O)[C@H](CC(=O)O)NC(=O)[C@H](CCCNC(=N)N)NC(=O)[C@H](Cc1ccccc1)NC(=O)[C@H](Cc1ccccc1)NC(=O)[C@H](CCCCN)N(C)C(=O)[C@H](CO)NC(=O)[C@H](CC(C)C)NC(=O)[C@H](CCCNC(=N)N)NC(=O)[C@H](CCSC)NC(=O)[C@H](C)N)C(=O)N[C@@H](CC(C)C)C(=O)N[C@@H](CCC(N)=O)C(=O)N[C@@H](CCCNC(=N)N)C(=O)N[C@@H](CCCCN)C(=O)N[C@@H](CCCCN)C(=O)O
2
CC[C@H](C)[C@H](NC(=O)[C@H](Cc1ccccc1)NC(=O)[C@H](CC(=O)O)NC(=O)[C@H](CCCNC(=N)N)NC(=O)[C@H](Cc1ccccc1)NC(=O)[C@H](Cc1ccccc1)NC(=O)[C@H](CCCCN)N(C)C(=O)[C@H](CO)NC(=O)[C@H](CC(C)C)NC(=O)[C@H](CCCNC(=N)N)NC(=O)[C@H](CCSC)NC(=O)[C@H](C)N)C(=O)N[C@@H](CC(C)C)C(=O)N(C)[C@@H](CCC(N)=O)C(=O)N[C@@H](CCCNC(=N)N)C(=O)N[C@@H](CCCCN)C(=O)N[C@@H](CCCCN)C(=O)O
6
CC[C@H](C)[C@H](NC(=O)[C@H](Cc1ccccc1)NC(=O)[C@H](CC(=O)O)NC(=O)[C@H](CCCNC(=N)N)NC(=O)[C@H](Cc1ccccc1)NC(=O)[C@H](Cc1ccccc1)NC(=O)[C@H](CCCCN)NC(=O)[C@H](CO)NC(=O)[C@H](CC(C)C)NC(=O)[C@H](CCCNC(=N)N)NC(=O)[C@H](CCSC)NC(=O)[C@@H](N)CCC(=O)O)C(=O)N[C@@H](CC(C)C)C(=O)N(C)[C@@H](CCC(N)=O)C(=O)N[C@@H](CCCNC(=N)N)C(=O)O (H-EMRLSKFFRDFIL[NMeQ]R-OH)
6

// next item, half-life at 0.05 ug/ml requested
The measured half-life at 0.05 ug/ml associated with `CC[C@H](C)[C@H](NC(=O)[C@H](CCCNC(=N)N)NC(=O)[C@H](CCSC)NC(=O)[C@H](C)N)C(=O)N[C@@H](CO)C(=O)N[C@@H](CCCNC(=N)N)C(=O)N[C@H](C(=O)N[C@H](C(=O)N[C@@H](CC(C)C)C(=O)N[C@H](CC(=O)O)C(=O)N[C@@H](Cc1ccccc1)C(=O)N[C@@H](CC(C)C)C(=O)N(C)[C@@H](Cc1ccccc1)C(=O)N[C@@H](CC(C)C)C(=O)N[C@@H](CCCNC(=N)N)C(=O)N[C@@H](CCCCN)C(=O)N[C@@H](CCCCN)C(=O)O)[C@@H](C)CC)[C@@H](C)CC` reads 4

----------
- Test system: Streptococcus pneumoniae D39
- measurement.protocol: Antagonist activity at ComD1 receptor in Streptococcus pneumoniae D39 harboring pcomX/lacZ reporter gene assessed as inhibiton of CSP1-stimulated maximum signal at 10 uM preincubated for 30 mins followed by 50 nM CSP1 addition by ONPG based beta-galactosidase assay relative to native CSP1
Active and inactive are the calls of the source. The calls are words filed in the database; no cut-off is given here. Non-standard residues stand in square brackets, D forms with d. Residues, ends and D or L forms follow the SMILES beside them. NMeF = CN[C@@H](Cc1ccccc1)C(=O)O; NMeE = CN[C@@H](CCC(=O)O)C(=O)O; NMeS = CN[C@@H](CO)C(=O)O
outcome.measure: inhibition

CC[C@H](C)[C@H](NC(=O)[C@H](CCCNC(=N)N)NC(=O)[C@H](CCSC)NC(=O)[C@@H](N)CCC(=O)O)C(=O)N[C@@H](CO)C(=O)N[C@@H](CCCNC(=N)N)C(=O)N[C@H](C(=O)N[C@H](C(=O)N[C@@H](CC(C)C)C(=O)N[C@@H](CC(=O)O)C(=O)N[C@@H](Cc1ccccc1)C(=O)N[C@@H](CC(C)C)C(=O)N(C)[C@@H](Cc1ccccc1)C(=O)O)[C@@H](C)CC)[C@@H](C)CC (H-EMRISRIILDFL[NMeF]-OH)
inactive
CC[C@H](C)[C@H](NC(=O)[C@H](CCCNC(=N)N)NC(=O)[C@H](CO)N(C)C(=O)[C@@H](NC(=O)[C@H](CCCNC(=N)N)NC(=O)[C@H](CCSC)NC(=O)[C@@H](N)CCC(=O)O)[C@@H](C)CC)C(=O)N[C@H](C(=O)N[C@@H](CC(C)C)C(=O)N[C@@H](CC(=O)O)C(=O)N[C@@H](Cc1ccccc1)C(=O)N[C@@H](CC(C)C)C(=O)N[C@@H](Cc1ccccc1)C(=O)O)[C@@H](C)CC (H-EMRI[NMeS]RIILDFLF-OH)
inactive
CC[C@H](C)[C@H](NC(=O)[C@H](CCCNC(=N)N)NC(=O)[C@H](CCSC)NC(=O)[C@H](CCC(=O)O)NC)C(=O)N[C@@H](CO)C(=O)N[C@@H](CCCNC(=N)N)C(=O)N[C@H](C(=O)N[C@H](C(=O)N[C@@H](CC(C)C)C(=O)N[C@@H](CC(=O)O)C(=O)N[C@@H](Cc1ccccc1)C(=O)N[C@@H](CC(C)C)C(=O)N[C@@H](Cc1ccccc1)C(=O)O)[C@@H](C)CC)[C@@H](C)CC (H-[NMeE]MRISRIILDFLF-OH)
inactive

----------
- measurement.protocol: Metabolic stability in human plasma assessed as half-life at 0.33 mM measured for 3 hrs by RP-HPLC analysis
- Assay type: ADME, cell-free
Non-standard residues stand in square brackets, D forms with d. Residues, ends and D or L forms follow the SMILES beside them. NMeF = CN[C@@H](Cc1ccccc1)C(=O)O; NMeQ = CN[C@@H](CCC(N)=O)C(=O)O; NMeK = CN[C@@H](CCCCN)C(=O)O
outcome.measure: half-life at 330 µM

See these solved cases before continuing.
CC[C@H](C)[C@H](NC(=O)[C@H](Cc1ccccc1)NC(=O)[C@H](CC(=O)O)NC(=O)[C@H](CCCNC(=N)N)NC(=O)[C@H](Cc1ccccc1)NC(=O)[C@H](Cc1ccccc1)NC(=O)[C@H](CCCCN)N(C)C(=O)[C@H](CO)NC(=O)[C@H](CC(C)C)NC(=O)[C@H](CCCNC(=N)N)NC(=O)[C@H](CCSC)NC(=O)[C@@H](N)CCC(=O)O)C(=O)N[C@@H](CC(C)C)C(=O)N[C@@H](CCC(N)=O)C(=O)N[C@@H](CCCNC(=N)N)C(=O)O (H-EMRLS[NMeK]FFRDFILQR-OH)
< 0.5 h
CC[C@H](C)[C@H](NC(=O)[C@H](Cc1ccccc1)NC(=O)[C@H](CC(=O)O)NC(=O)[C@H](CCCNC(=N)N)NC(=O)[C@H](Cc1ccccc1)NC(=O)[C@H](Cc1ccccc1)N(C)C(=O)[C@H](CCCCN)NC(=O)[C@H](CO)NC(=O)[C@H](CC(C)C)NC(=O)[C@H](CCCNC(=N)N)NC(=O)[C@H](CCSC)NC(=O)[C@@H](N)CCC(=O)O)C(=O)N[C@@H](CC(C)C)C(=O)N[C@@H](CCC(N)=O)C(=O)N[C@@H](CCCNC(=N)N)C(=O)O (H-EMRLSK[NMeF]FRDFILQR-OH)
< 0.5 h

// next item, half-life at 330 µM requested
The measured half-life at 330 µM associated with CC[C@H](C)[C@H](NC(=O)[C@H](Cc1ccccc1)NC(=O)[C@H](CC(=O)O)NC(=O)[C@H](CCCNC(=N)N)NC(=O)[C@H](Cc1ccccc1)NC(=O)[C@H](Cc1ccccc1)NC(=O)[C@H](CCCCN)NC(=O)[C@H](CO)NC(=O)[C@H](CC(C)C)NC(=O)[C@H](CCCNC(=N)N)NC(=O)[C@H](CCSC)NC(=O)[C@@H](N)CCC(=O)O)C(=O)N[C@@H](CC(C)C)C(=O)N(C)[C@@H](CCC(N)=O)C(=O)N[C@@H](CCCNC(=N)N)C(=O)O (H-EMRLSKFFRDFIL[NMeQ]R-OH) reads 2 h
